system: PfAP2-HC AP2 domain (GST-tagged); assay: gcPBM binding intensity (ln(normalized median fluorescence intensity)); higher = stronger DNA binding
Whole data set: some 25,000 sequences, median “ln(normalized median fluorescence intensity)” near 9.7, cut for the highest 2% near 11. Many of the other results were omitted from the sample, so the highest values are more common in it than they were.
value type: gcPBM binding intensity (ln)
A bare number is all that is needed in reply.

gcPBM binding intensity (ln) in this record for AGCACACGCAGACACACACACACACGCACACGCACA [CACACA_site6306] : 11.6

gcPBM binding intensity (ln) in this record for AATACACGCAGACACACACACACACGCACATATATA [CACACA_site6447] : 10.8

gcPBM binding intensity (ln) in this record for CACGCACGCAGACACACACACACACGCACATATATA [CACACA_site6303] : 10.6

gcPBM binding intensity (ln) in this record for AACATTATAAGACACACACACACATATATAAATATA [CACACA_site6622] : 11.2

gcPBM binding intensity (ln) in this record for TGCATATACTCAAGCACACATATATATATATATATA [CACACA_site4733] : 9.71

gcPBM binding intensity (ln) in this record for TAATAAATAAGACACACACACATATATATATATTAT [CACACA_site1389] : 10.3

gcPBM binding intensity (ln) in this record for AACATTATAAGACACACACACACATATATATATATA [CACACA_site8259] : 10.8

gcPBM binding intensity (ln) in this record for TTATTTTTTAGTAGTACACACTTTTTGTACCTTTTA [CACACA_site4503] : 9.87

gcPBM binding intensity (ln) in this record for TTTTTATGTTATCAAATAAATATAAATATAATTCAT [CACACA_negctrl_site1522] : 9.32

----------
system: PfAP2-HC AP2 domain (GST-tagged); assay: gcPBM binding intensity (ln(normalized median fluorescence intensity)); higher = stronger DNA binding
Whole data set: some 25,000 sequences, median “ln(normalized median fluorescence intensity)” near 9.7, cut for the highest 2% near 11. For the sample, the highest values were picked, then their nearest neighbours and some sequences at random.
value type: gcPBM binding intensity (ln)
A bare number is all that is needed in reply.

Test item TACAGACATAGACACACACACACGCATAAAAAAAAA [CACACA_site6820] ; PfAP2-HC AP2 domain (GST-tagged); reported gcPBM binding intensity (ln) was 11.4

Test item TACAGACAGAAACACACACACACGCATAAAAAAAAA [CACACA_site1514] ; PfAP2-HC AP2 domain (GST-tagged); reported gcPBM binding intensity (ln) was 10.5

Test item TATTTATAAAAAAATACATGCATTTTTTTTTTTTTT [TGCATGCA_site65] ; PfAP2-HC AP2 domain (GST-tagged); reported gcPBM binding intensity (ln) was 9.36

Test item TTATATGTATATATAGTGCAGAACAAAAGATTATAT [GTGCAC_site9599] ; PfAP2-HC AP2 domain (GST-tagged); reported gcPBM binding intensity (ln) was 9.7

Test item TATATACACAGACACACACACACATACACGCACATA [CACACA_site6909] ; PfAP2-HC AP2 domain (GST-tagged); reported gcPBM binding intensity (ln) was 10.5

Test item AATATATACACATGCGCACACACAAGTGGGAAATTT [CACACA_site8527] ; PfAP2-HC AP2 domain (GST-tagged); reported gcPBM binding intensity (ln) was 10.2

Test item TTTTTTTTTTTTCTGTGTACATATATAATATATATA [XGTACX_site1592] ; PfAP2-HC AP2 domain (GST-tagged); reported gcPBM binding intensity (ln) was 9.7

Test item TTTCTAAGAAAAAAAAAAAAAAAAAAAAAGATACAA [GTGCAC_negctrl_site525] ; PfAP2-HC AP2 domain (GST-tagged); reported gcPBM binding intensity (ln) was 9.24

Test item ACAAATAAATATTCGCGTACTTATATAATATTACGA [XGTACX_site6428] ; PfAP2-HC AP2 domain (GST-tagged); reported gcPBM binding intensity (ln) was 9.66

Origin of values: the supplement of paper PMC11417369
